Cited source for all entries: patent US9193728B2

Molecular target: human recombinant histamine H2 receptor (Homo sapiens)
Construct: expressed in transfected cells; host or cells: CHO-K1
Sequence (P25021 whole entry): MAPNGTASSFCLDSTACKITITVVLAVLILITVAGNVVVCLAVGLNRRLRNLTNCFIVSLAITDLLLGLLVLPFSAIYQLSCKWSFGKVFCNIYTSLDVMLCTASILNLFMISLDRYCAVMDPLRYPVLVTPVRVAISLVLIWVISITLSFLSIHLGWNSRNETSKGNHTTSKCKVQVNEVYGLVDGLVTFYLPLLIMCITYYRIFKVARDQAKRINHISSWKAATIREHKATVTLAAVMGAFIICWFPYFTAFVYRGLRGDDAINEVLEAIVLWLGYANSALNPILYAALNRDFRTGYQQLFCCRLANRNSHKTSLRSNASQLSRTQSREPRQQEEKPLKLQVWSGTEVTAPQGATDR
Assay: Histamine H2 radioligand binding ([125I]Aminopotentidine)
Conditions: compound at 1 μM; 0.1 nM [125I]Aminopotentidine; read-out: Histamine Binding (1 μM) H2, percentage inhibition

- COMPOUND: "Cc1cc2c3c(c1)c1c(n3CC2c2ccc(F)cc2)CCN(C)C1 (stereo not shown)"
  inhibition at 1 µM (%): 48
- COMPOUND: "Cc1cc2c3c(c1)c1c(n3CCO2)CCN(C)C1"
  inhibition at 1 µM (%): 10
- COMPOUND: "Cc1cc2c3c(c1)c1c(n3CC(c3ccc(C)nc3)C2)CCN(C)C1 (stereo not shown)"
  inhibition at 1 µM (%): 42
- COMPOUND: "Cc1cc2c3c(c1)c1c(n3CC(c3ccc(F)cc3)C2)CCN(C)C1 (stereo not shown)"
  inhibition at 1 µM (%): 75
